Target: T1, hRev1 330-833 EY (human, UniProt Q9UBZ9 330-833, E466A;Y470A)
T1 sequence: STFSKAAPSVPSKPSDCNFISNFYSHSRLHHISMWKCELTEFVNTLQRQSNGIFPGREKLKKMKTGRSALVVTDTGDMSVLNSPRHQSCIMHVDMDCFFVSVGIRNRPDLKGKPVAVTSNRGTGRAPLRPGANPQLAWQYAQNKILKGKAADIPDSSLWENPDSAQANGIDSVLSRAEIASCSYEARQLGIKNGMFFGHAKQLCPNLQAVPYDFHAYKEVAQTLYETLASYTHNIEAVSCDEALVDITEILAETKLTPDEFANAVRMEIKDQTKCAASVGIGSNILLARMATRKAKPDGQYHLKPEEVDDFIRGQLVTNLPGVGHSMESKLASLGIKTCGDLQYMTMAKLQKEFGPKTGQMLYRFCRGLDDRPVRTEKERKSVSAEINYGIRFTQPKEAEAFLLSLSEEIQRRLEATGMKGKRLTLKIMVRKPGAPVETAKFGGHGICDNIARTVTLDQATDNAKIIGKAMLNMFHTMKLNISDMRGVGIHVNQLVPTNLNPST
Experiment: fluorescence polarization
metric.name: Kd (nM)
Response body: numeric value in nM, unit text excluded.

q: Fill in the blank: the reported Kd of TGAGGGTGGGTAGGGTGGGTGCGTCTGCGGCTGGCTCGAGGC (structured_DNA) [ss-42-mer Myc G4] is ____.
a: 87
